# TARGET_UNDER_TEST: T1, hPDGFRb.mmh (human, UniProt P09619 33-531)
# T1 construct: Soluble monomeric construct; also called soluble human PDGFR-beta.mmh
# TEST_DESCRIPTION: SPR, mAb captured, 25 C
MEASURED_QUANTITY: kon (M⁻¹ s⁻¹)
I only need the number, in M⁻¹ s⁻¹, no unit after it.

For H2M3373N (antibody, V domains shown, mouse Fc (H2M prefix; isotype not spelled out)) VH: EVQLRDSGGGLVQPGGSLRLSCVASGFTFSSYWMSWVRQAPGKGLEWVVNINRDGSEKYYVDSVKGRFIISRDNTKNSLYLQMESLRAEDTAVYYCARDPPYHLYGMDVWGQGTTVTVSS VL: DIQMTQSPSSLSASVGDRVTITCRTSQGIRVDLAWYQQKPGKAPERLIYAASSLQSGVPSRFSGGGSGTEFTLTVSSLQPEDFATYYCLQHHNFPYTFGQGTKLEIK , write its kon.
189000

For H4H3096S (antibody, human IgG4, V domains shown, human IgG4 Fc (H4H prefix)) VH: EVQLVQSGGSLVQPGGSLRLSCTASGFTFSSYWMSWVRQAPGKGLEWVANIQQDESEKYYVDSVKGRFSISRDNAKKSLYLQMNSLRAEDTAVYFCARDLVPPRQGDYYHYFGMDVWGQGTLVTVSS VL: AIRMTQSPSTLSASVGDRVTITCRASQSISDWLAWYQQKPGKAPNLLIYKASSLESGVPSRFSGSGSGTEFTLTISGLQPDDFATYYCQQYNSYSRTFGQGTKLEIKR , write its kon.
281000

For H4H3105S (antibody, human IgG4, V domains shown, human IgG4 Fc (H4H prefix)) VH: QVQLVESGGSLVQPGGSLRLACTASGFTFSSYWMSWVRQAPGKGLEWVANIQQDENEKYYVDSVKGRFSISRDNAKKSLYLQMNSLRVEDTAVYFCARDLVPPRQGDYYHYFGMDVWGQGTTVTVSS VL: DIQLTQSPSTLSASVGDRVTITCRASQSISDWLAWYQQKPGKAPNLLIYKASTLESGVPSRFSGSGSGTEFTLTISSLQPDDFATYYCQQYNSYSRTFGQGTKVEIK , write its kon.
246000

From: patent US20170210813A1
